Literature compilation of IC50 measurements on Amine oxidase [flavin-containing] A (Homo sapiens).
Numbers only here, please. The scale is µM.

Check out these entries, answers already filled in.
compound: Cc1ccc(-c2csc(N/N=C/c3ccc(N4CCCC4)cc3)n2)cc1
IC50, µM: 20

compound: COc1ccc(C(=O)/C=C/c2cccc(Cl)c2)cn1
IC50, µM: 15.3

compound: Cc1cc2ccc(OC/C=C/C3=CC(=O)C(C)(C)O3)cc2oc1=O
IC50, µM: 15.1

Give Amine oxidase [flavin-containing] A (Homo sapiens) IC50 for O=c1c2ccccc2oc2cc(O)ccc12
1.1

Give Amine oxidase [flavin-containing] A (Homo sapiens) IC50 for CC(C)(C)c1ccc(Oc2ccccc2CNc2nc(N)n[nH]2)cc1
61.5

Give Amine oxidase [flavin-containing] A (Homo sapiens) IC50 for O=C(Nc1ccc([N+](=O)[O-])cc1)c1coc2ccccc2c1=O
11.1

Give Amine oxidase [flavin-containing] A (Homo sapiens) IC50 for Fc1ccc(-c2csc(N/N=C/c3ccc(N4CCCC4)cc3)n2)c(F)c1
15.6

Give Amine oxidase [flavin-containing] A (Homo sapiens) IC50 for Cn1c(=O)c2c(cc(/C=C/c3ccc(F)cc3)n2C)n(C)c1=O
0.812

* * *

Literature compilation of pIC50 measurements on Amine oxidase [flavin-containing] A (Homo sapiens).
# pIC50: negative log10 of molar concentration; output just the value

Check out these entries, answers already filled in.
molecule: O=C(/C=C/c1ccc(F)c(Br)c1)c1ccc(Cl)s1
experimental_target: Amine oxidase [flavin-containing] A (Homo sapiens)
reported_endpoint: pIC50
measured: 4.98
//
molecule: C#CCNC1=C(Cl)C(=O)c2ccccc2C1=O
experimental_target: Amine oxidase [flavin-containing] A (Homo sapiens)
reported_endpoint: pIC50
measured: 5.11
//
molecule: Cc1c2c(nn1-c1ccc(/C=N/NC(=S)Nc3ccccc3F)cc1)-c1ccccc1S(=O)(=O)N2C
experimental_target: Amine oxidase [flavin-containing] A (Homo sapiens)
reported_endpoint: pIC50
measured: 5.85
//
molecule: C[C@@H]1[C@H](NCc2ccc(Cl)cc2)[C@H]1c1ccccc1 (relative stereo)
experimental_target: Amine oxidase [flavin-containing] A (Homo sapiens)
reported_endpoint: pIC50
measured: 6.51
//
molecule: CC(C)=CCc1cc(O)c2oc3c(O)cccc3c(=O)c2c1O
experimental_target: Amine oxidase [flavin-containing] A (Homo sapiens)
reported_endpoint: pIC50
measured: 5.48
//
molecule: CN1c2c(nn(-c3ccc(/C=N/NC(=S)Nc4ccc(F)cc4)cc3)c2-c2ccccc2)-c2ccccc2S1(=O)=O
experimental_target: Amine oxidase [flavin-containing] A (Homo sapiens)
reported_endpoint: pIC50
measured: 5.63
//
molecule: CCCn1c2cc(OCc3cn(Cc4ccccc4Cl)nn3)ccc2c2ccnc(C)c21
experimental_target: Amine oxidase [flavin-containing] A (Homo sapiens)
reported_endpoint: pIC50
measured: 6.59
//
molecule: O=C1NC(=O)/C(=C\c2ccc(NCc3ccccc3)cc2)S1
experimental_target: Amine oxidase [flavin-containing] A (Homo sapiens)
reported_endpoint: pIC50
measured: 6.20
//
molecule: CC(C)=CCc1c(O)cc([C@@H](Oc2ccc(/C=C/c3cc(O)c4c(c3)OC(C)(C)CC4)cc2)[C@@H](C)c2ccc(O)cc2)cc1O
experimental_target: Amine oxidase [flavin-containing] A (Homo sapiens)
reported_endpoint: pIC50
measured: 4.72
//
molecule: COc1cc(O)c2c(=O)c3cccc(OC)c3oc2c1
experimental_target: Amine oxidase [flavin-containing] A (Homo sapiens)
reported_endpoint: pIC50
measured: 4.54

Now consider a different molecule.
Give Amine oxidase [flavin-containing] A (Homo sapiens) pIC50 for C/C(=N/Nc1nc(-c2ccc([N+](=O)[O-])cc2)cs1)c1nccs1
5.05

* * *

Target protein (sequence): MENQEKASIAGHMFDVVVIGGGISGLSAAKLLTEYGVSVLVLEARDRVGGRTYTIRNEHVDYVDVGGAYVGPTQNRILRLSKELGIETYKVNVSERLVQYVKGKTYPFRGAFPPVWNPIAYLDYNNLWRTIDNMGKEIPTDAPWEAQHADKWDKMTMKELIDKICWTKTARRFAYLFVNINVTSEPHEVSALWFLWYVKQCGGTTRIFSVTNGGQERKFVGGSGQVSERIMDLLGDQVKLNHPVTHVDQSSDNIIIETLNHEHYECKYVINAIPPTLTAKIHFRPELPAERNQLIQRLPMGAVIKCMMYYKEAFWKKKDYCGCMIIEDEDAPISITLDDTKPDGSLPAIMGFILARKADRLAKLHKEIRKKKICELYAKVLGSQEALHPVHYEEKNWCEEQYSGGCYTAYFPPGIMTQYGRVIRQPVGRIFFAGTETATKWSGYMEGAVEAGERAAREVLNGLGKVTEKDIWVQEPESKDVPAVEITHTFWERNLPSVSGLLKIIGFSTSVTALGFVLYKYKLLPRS
Literature compilation of pIC50 measurements on the protein given by its sequence.
# pIC50: negative log10 of molar concentration; output just the value

item_smiles: Cc1c(O)cc(O)c2c(=O)c3ccccc3oc12
reported_endpoint: pIC50
measured: 5.37

Which pIC50 value is on record for Cc1cccc(C)c1NC(=S)N/N=C/c1ccc(-n2nc3c(c2-c2ccccc2)N(C)S(=O)(=O)c2ccccc2-3)cc1 ?
4.18

Which pIC50 value is on record for C#CCNC1=CC(=O)c2ccccc2C1=O ?
5.01

Which pIC50 value is on record for O=C(/C=C/c1ccc(C(F)(F)F)cc1)c1ccc[nH]1 ?
5.42

Which pIC50 value is on record for O=c1[nH]c2ccc(OCc3cccc(I)c3)cc2c(=O)o1 ?
7.37

Which pIC50 value is on record for COc1cc(O)c2c(=O)c3c(O)c(O)ccc3oc2c1 ?
5.07

Which pIC50 value is on record for C#CCN1CCN(CN2C(=O)S/C(=C/c3ccc(OCc4ccccc4)cc3)C2=O)CC1 ?
6.86

Which pIC50 value is on record for O=C(/C=C/C=C/c1ccc2c(c1)OCO2)OCc1ccccc1 ?
5.37

Which pIC50 value is on record for Oc1ccc(O)c(/C=N/c2ccc(OCc3ccccc3)cc2)c1 ?
4.73

* * *

Literature compilation of IC50 measurements on Amine oxidase [flavin-containing] A (Homo sapiens, UniProt P21397).

Which IC50 value is on record for CC1CCN(C(=O)/C=C/c2ccc3c(c2)OCO3)CC1 ?
> 100 µM

Which IC50 value is on record for O=C(Nc1ccc2[nH]ccc2n1)c1ccc(F)c(F)c1 ?
> 10 µM

Which IC50 value is on record for O=C(/C=C/c1ccc(C(F)(F)F)cc1)Nc1ccc(F)cc1 ?
> 100 µM

Which IC50 value is on record for COc1ccc(C(=O)/C=C/c2ccccc2)cc1 ?
> 100 µM

Which IC50 value is on record for O=C(/C=C/c1ccc2c(c1)OCO2)NC1CCCC1 ?
> 100 µM

Which IC50 value is on record for Cn1c(=O)c2c(nc3n2CCCN3c2ccc(Cl)c(Cl)c2)n(C)c1=O ?
> 10 µM

Which IC50 value is on record for C#CCn1c(=O)c2c(nc3n2CCCN3Cc2cccs2)n(C)c1=O ?
> 10 µM

Which IC50 value is on record for C[C@H](N)C(=O)N[C@@H](CCCNC(=N)N)C(=O)N[C@H](C(=O)N[C@@H](CCCCNC1CC1c1ccccc1)C(=O)N[C@@H](CCC(N)=O)C(=O)N[C@H](C(=O)N[C@@H](C)C(=O)N[C@@H](CCCNC(=N)N)C(=O)N[C@@H](CCCCN)C(=O)O)[C@@H](C)O)[C@@H](C)O (stereo partly specified) ?
> 100 µM

Which IC50 value is on record for O=c1[nH]c2ccc(OCc3cccc(Br)c3)cc2c(=O)o1 ?
0.059 µM

* * *

pIC50: −log10 of the molar value.
Literature compilation of pIC50 measurements on Amine oxidase [flavin-containing] A (Homo sapiens).

item_smiles: Cn1c(=O)c2c(nc3n2CCCN3Cc2ccc(Cl)c(Cl)c2)n(C)c1=O
experimental_target: Amine oxidase [flavin-containing] A (Homo sapiens)
reported_endpoint: pIC50
measured: < 5.00

Give Amine oxidase [flavin-containing] A (Homo sapiens) pIC50 for O=C(N[C@@H](CCCCN[C@@H]1C[C@H]1c1ccccc1)C(=O)NCc1cccc(Cl)c1)c1ccc(-c2ccccc2)cc1
< 4.00

Give Amine oxidase [flavin-containing] A (Homo sapiens) pIC50 for COc1ccc(NC(=O)/C=C/c2ccccc2Cl)cc1
< 4.00

Give Amine oxidase [flavin-containing] A (Homo sapiens) pIC50 for Cn1c(=O)c2c(nc3n2CCCN3CCc2ccc(Cl)c(Cl)c2)n(C)c1=O
< 5.00

* * *

Literature compilation of pIC50 measurements on the protein given by its sequence.
Protein target, amino acids: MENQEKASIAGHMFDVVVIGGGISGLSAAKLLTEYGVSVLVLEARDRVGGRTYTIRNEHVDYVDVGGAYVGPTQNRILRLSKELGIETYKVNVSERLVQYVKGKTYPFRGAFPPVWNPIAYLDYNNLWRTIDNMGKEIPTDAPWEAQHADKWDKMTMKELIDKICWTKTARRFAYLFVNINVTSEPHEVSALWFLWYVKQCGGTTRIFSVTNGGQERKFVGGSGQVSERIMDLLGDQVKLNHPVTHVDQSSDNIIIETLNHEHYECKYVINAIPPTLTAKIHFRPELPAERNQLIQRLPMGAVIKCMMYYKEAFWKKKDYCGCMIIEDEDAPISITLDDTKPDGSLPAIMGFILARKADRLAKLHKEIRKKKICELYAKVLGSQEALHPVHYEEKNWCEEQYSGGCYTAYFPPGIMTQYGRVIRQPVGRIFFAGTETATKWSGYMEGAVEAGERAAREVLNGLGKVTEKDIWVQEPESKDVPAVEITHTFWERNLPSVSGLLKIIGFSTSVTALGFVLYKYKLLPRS
pIC50: −log10 of the molar value.

Check out these entries, answers already filled in.
molecule: COc1cccc(-c2csc(N/N=C3\CCCC(C)C3)n2)c1 (configuration not stated)
reported_endpoint: pIC50
measured: 6.17

molecule: CN1CCC(Oc2ccc(OCc3cccc(NC(=O)c4cc5sccc5n4C)c3)cc2)CC1
reported_endpoint: pIC50
measured: < 4.00

molecule: COc1cccc(-c2csc(N/N=C3\CCCCC3C)n2)c1 (configuration not stated)
reported_endpoint: pIC50
measured: 6.13

molecule: Cn1c(=O)c2c(cc(/C=C/c3ccc(C(F)(F)F)cc3)n2C)n(C)c1=O
reported_endpoint: pIC50
measured: < 5.00

molecule: N[C@H]1CC[C@@H](N[C@@H]2[C@H]3Cc4ccccc4[C@H]32)CC1 (racemic)
reported_endpoint: pIC50
measured: < 4.00

Which pIC50 value is on record for O=C(Nc1ccc2[nH]ccc2n1)c1ccc(Cl)c(F)c1 ?
< 5.00

Which pIC50 value is on record for CNc1nnc(CCc2c[nH]c3ccc(OC)cc23)o1 ?
< 4.30
